system: HS 578T breast; assay: NCI tumour cell line growth inhibition, 48 h
Examples of molecules with documented TGI follow.
metric.name: TGI

INSERT INTO results (molecule, metric_name, result_value) VALUES
  ('COc1cccc(C=Nc2cc(C)ccn2)c1O.COc1cccc(C=Nc2cc(C)ccn2)c1O.[Cu]', 'TGI', '67.6 µM'),
  ('CC1C(c2ccccc2)OP(=O)(OC(C#N)c2ccccc2)N1C (stereo not drawn)', 'TGI', '> 100 µM'),
  ('CCCCCC/C=C\CCCCCCCCCc1cccc(O)c1C(=O)O', 'TGI', '> 100 µM'),
  ('C/C(=N\Nc1ccc2ccccc2n1)c1ccccn1', 'TGI', '30.5 µM'),
  ('CC(C)[C@@H]1NC(=O)[C@H]2N=C(O[C@@H]2C)[C@@H]2CCCN2C(=O)[C@H](Cc2ccccc2)NC(=O)[C@@H]2CSC(=N2)[C@@H](Cc2ccccc2)NC(=O)[C@@H]2CSC1=N2', 'TGI', '> 50 µM'),
  ('Cc1cc(C)c(C2=NOC(c3ccccc3)(c3cc(=O)n(-c4ccccc4)s3)O2)c(C)c1 (stereo not drawn)', 'TGI', '> 100 µM'),
  ('CCC1C(c2cc(OC)c(OC)c(OC)c2)c2cc3c(cc2OC1N1CCCC1)OCO3 (stereo not drawn)', 'TGI', '14.1 µM'),
  ('CCC1(CC)CC(=NNS(=O)(=O)c2ccc(C)cc2)C1', 'TGI', '> 100 µM'),
  ('COc1c2c(cc3oc(C)cc(=O)c13)OC(=N)C(C(N)=O)C2CC(=O)c1ccc(N)cc1 (stereo not drawn)', 'TGI', '> 100 µM'),
  ('C=C1CC[C@@H]2[C@](C)(COC(C)=O)[C@@H](O)CC[C@@]2(C)[C@@H]1COc1ccc2ccc(=O)oc2c1', 'TGI', '> 100 µM'),
  ('CC1CCCc2c(C#N)c(N)nc(-c3ccc(Cl)cc3)c21 (stereo not drawn)', 'TGI', '> 100 µM'),
  ('COc1ccc(-c2c3c(nc4nc(SCCc5ccccc5)nc(N)c24)CCCC3)cc1OC', 'TGI', '> 100 µM'),
  ('CN1CCCCC1CCN1CCCCC1 (stereo not drawn)', 'TGI', '> 100 µM');

====

system: M19-MEL melanoma; assay: NCI tumour cell line growth inhibition, 48 h
metric.name: TGI

INSERT INTO measurements (compound, tgt, metric_name, result_value) VALUES
  ('c1ccc2c(C3NCCc4[nH]cnc43)cccc2c1 (stereo not drawn)', 'M19-MEL melanoma', 'TGI', '> 100 µM'),
  ('C[Si](C)(C)OC1(C#N)C2C3CC4C2C(=O)C2C4C3C21 (stereo not drawn)', 'M19-MEL melanoma', 'TGI', '> 100 µM'),
  ('O=C1C(=O)N(c2ccc(Cl)c(Cl)c2)C(=O)C(=O)C1c1nc2ccccc2s1', 'M19-MEL melanoma', 'TGI', '> 100 µM');

====

Examples of compounds with documented GI50 follow.
tested on: RXF 393 renal; assay: NCI tumour cell line growth inhibition, 48 h
metric.name: GI50

INSERT INTO results (smiles_representation, metric_name, result_value) VALUES
  ('CCN(C(=O)N1CCN(c2cc3c(cc2F)c(=O)c(C(=O)O)cn3C2CC2)CC1)c1nc(-c2ccc(C)cc2)cs1', 'GI50', '0.38 µM'),
  ('N#Cc1c(N/N=C/c2c(Cl)cccc2Cl)nc(N)nc1N1CCOCC1', 'GI50', '16.6 µM'),
  ('Cc1cc(NCc2cc(Nc3ccnc4cc(Cl)ccc34)ccc2F)nc(N2CCCC2)n1', 'GI50', '1.45 µM'),
  ('C=CC(=O)Nc1cccc(C)c1Nc1cc(-c2cccnc2Cc2c(C)c(OC)cc(OC)c2C)ncn1', 'GI50', '2.52 µM'),
  ('O=C(/C(=C/c1ccccc1)CN1CCCCC1)c1ccccc1', 'GI50', '0.481 µM'),
  ('Cc1cc2c3ccc(C)[n+](C)c3ccc2n1C', 'GI50', '4.01 µM'),
  ('N/C(=N\N=C\c1ccc(-c2ccccc2)cc1)N[N+](=O)[O-]', 'GI50', '2.78 µM');

====

test system: SF-539 CNS; test: NCI tumour cell line growth inhibition, 48 h
Examples of compounds with documented TGI follow.
metric.name: TGI

INSERT INTO results (compound, metric_name, result_value) VALUES
  ('CCOC(=O)c1nc2ccc([N+](=O)[O-])cc2c2c1CCO2', 'TGI', '> 100 µM'),
  ('CN(CCO)c1nc2c(c(=O)[nH]1)CCC2', 'TGI', '> 100 µM'),
  ('N#CC(C(=O)CCC(=O)Nc1cccc(Cl)c1)c1ccccc1 (stereo not given)', 'TGI', '> 100 µM'),
  ('COc1cc(OC)c(OC)cc1/C=N/N=C(\N)NO', 'TGI', '> 100 µM'),
  ('COc1nc2c(c(=O)n1C)N(C(C)=O)C1C(N2)OCC(OC(C)=O)C1OC(C)=O (stereo not given)', 'TGI', '> 10 µM');

====

system: HOP-62 NSCLC; assay: NCI tumour cell line growth inhibition, 48 h
metric.name: TGI

INSERT INTO results (compound, metric_name, result_value) VALUES
  ('CC1(CCC2C=CCC2)CCCNC1=S (stereo not given)', 'TGI', '> 10 µM'),
  ('C[Si](C)(C)OC1(C#N)C2C3CC4C2C(=O)C2C4C3C21 (stereo not given)', 'TGI', '> 100 µM'),
  ('O=C(NCCCCCCCCNC(=O)c1cc(-c2ccccc2)nc2ccccc12)c1cc(-c2ccccc2)nc2ccccc12', 'TGI', '> 100 µM'),
  ('COc1nc(N)c(NC2OC(CO)C(O)C2O)c(=O)[nH]1 (stereo not given)', 'TGI', '> 100 µM'),
  ('N#Cc1c(N/N=C/c2c(Cl)cccc2Cl)nc(N)nc1N1CCOCC1', 'TGI', '> 100 µM');

====

test system: LOX IMVI melanoma; assay: NCI tumour cell line growth inhibition, 48 h
metric.name: TGI

INSERT INTO measurements (compound, tgt, result_value) VALUES
  ('CCCCCCCCCCCC(=O)OCCOCCOCCOCCOCCOCc1ccc(OC)cc1', 'LOX IMVI melanoma', '> 100 µM'),
  ('COc1ccccc1NC(=O)/C(Cc1nc2ccc([N+](=O)[O-])cc2[nH]c1=O)=N\NC(=O)C[N+](C)(C)C', 'LOX IMVI melanoma', '> 100 µM'),
  ('C=CCOC1OC(CO[Si](C)(C)C(C)(C)C)C(OCc2ccccc2)C(OCc2ccccc2)C1OCc1ccccc1 (stereo not drawn)', 'LOX IMVI melanoma', '> 100 µM');

====

tested on: DU-145 prostate; assay: NCI tumour cell line growth inhibition, 48 h
metric.name: GI50

INSERT INTO assay_data (compound, result_value) VALUES
  ('CCN(C(=O)N1CCN(c2cc3c(cc2F)c(=O)c(C(=O)O)cn3C2CC2)CC1)c1nc(-c2ccc(C)cc2)cs1', '0.442 µM'),
  ('Cc1cc(N/N=C/c2nc(-c3ccc(Br)cc3)oc2C)c2cc(Cl)ccc2n1', '> 100 µM'),
  ('Cc1cc2c3ccc(C)[n+](C)c3ccc2n1C', '5.09 µM'),
  ('COc1cc2c(cc1OCCCCOc1cc3c(cc1OC)C(=O)N1CCC[C@H]1CN3)N=C[C@@H]1CCCN1C2=O', '2.46 µM'),
  ('O=C(/C(=C/c1ccc([N+](=O)[O-])cc1)c1ccccc1)c1ccccc1', '3.17 µM'),
  ('O=C1c2c(c3c4ccccc4[nH]c3c3ccc4ccccc4c23)C(=O)N1CCN1CCCCC1', '1.05 µM'),
  ('C=C1CC[C@@H]2[C@](C)(COC(C)=O)[C@@H](O)CC[C@@]2(C)[C@@H]1COc1ccc2ccc(=O)oc2c1', '> 100 µM'),
  ('CCCn1c(C)nc2c1C(=O)c1ccccc1C2=O', '23.5 µM'),
  ('C[C@]12CC[C@H]3[C@@H](CCC4=CC(=O)CC[C@@H]43)[C@@H]1CC[C@@H]2OC(=O)CCc1ccccc1', '15.6 µM'),
  ('C=CC(=O)Nc1cccc(C)c1Nc1cc(-c2cccnc2Cc2c(C)c(OC)cc(OC)c2C)ncn1', '16.7 µM'),
  ('O=C(c1ccccc1)C(CN1CCOCC1)c1ccccc1 (centres undefined)', '1.16 µM'),
  ('CCN1CCC(CCOC)(CN2c3ccccc3Sc3ccc(Cl)cc32)C1 (centres undefined)', '1.92 µM'),
  ('O[C@H]1CO[C@H]2[C@@H]1OC[C@@H]2Oc1ccc(Nc2ccnc(Nc3ccc(O[C@H]4CO[C@H]5[C@@H]4OC[C@@H]5O)c(Cl)c3)n2)cc1Cl', '1.56 µM'),
  ('c1ccc2c(c1)c(NCCCCN1CCCCC1)cc1c3ccccc3c(NCCCCN3CCCCC3)cc21', '16.3 µM');

Each recorded value in this set is attributed to PubChem BioAssay (NCI).
